Where these numbers come from: ChEMBL document CHEMBL1201862

test system: COLO 205; experiment: NCI tumour cell line growth inhibition, 48 h
Active and inactive are the calls of the source. Cut-off read from the data, not from the text of the source: active = GI50 up to about 1.1 µM and inactive = higher.
Valid outcomes are listed here; reply with one: TRUE (active), FALSE (inactive)

Examples with answers:
compound	target-of-assay	classification
COc1cc(OC)c(OC)cc1/C=C/c1nc2ccccc2s1	COLO 205	FALSE
COc1cc(C(=O)O)c([N+](=O)[O-])c(OC)c1OC	COLO 205	FALSE
COCc1nc(N)nc(N2N=C(C)CC2(C)C)n1	COLO 205	FALSE
COc1ccc(C(OCC2OC3(COC(c4ccccc4)(c4ccc(OC)cc4)c4ccc(OC)cc4)C(Oc4nc(=O)ccn43)C2O)(c2ccccc2)c2ccc(OC)cc2)cc1 (stereo not given)	COLO 205	FALSE

Enquiry: Kindly provide the recorded test outcome for the following compound: CCN(CC)C(=O)c1cc(OC(C)C)ccc1-c1c(C)cc(OC(C)C)c(OC)c1OC
Return: FALSE

Enquiry: Any idea what this test logged for CN(C)c1ccc(/C=C2\C[N+](C)(C)C/C(=C\c3ccc(N(C)C)cc3)C2=O)cc1 ?
Return: FALSE

Enquiry: Dear all, I need the recorded test outcome for Clc1cc(Cl)cc(Nc2nc3ccccc3nc2-c2cccs2)c1 , thank you.
Return: FALSE

Enquiry: Call for entry CCc1ccccc1N1CCN(C(=O)c2cc(OC)c(OC)c(OC)c2)CC1 :
Return: TRUE

Enquiry: # outcome recorded in this test, key = O=C1OC2C=CCC1C2 (stereo not given)
Return: FALSE
